# Test system: bovine tubulin
# Test Description: In vitro tubulin polymerization assay (turbidity at 340 nm)
# Type: biochemical
# Condition Label: 10 μM compound, 30 minute data point, vs 1% DMSO control
The label depends only on Tubulin Assay: percent inhibition at 10 μM based on 30 minute data: MET if it is at least 80%, NOT MET if it is smaller.

[
  {
    "Compound": "c1cnc(NCC2COCCO2)c(-c2nnc(Nc3ccc4c(c3)OCO4)o2)c1 (centres unmarked) [Compound 202]",
    "Answer Label": "MET"
  }
]

[in] Item COc1cc(Nc2ncccc2-c2nnc(Nc3cccc(NCC4CCOCC4)c3)[nH]2)cc(OC)c1 [Compound 61] with Tubulin Assay: percent inhibition at 10 μM based on 30 minute data of 80% or above?
[out] NOT MET

[in] Item COc1ccc(OC)c(Nc2nnc(-c3cccnc3Nc3ccc4c(c3)OCO4)[nH]2)c1 [Compound 9] with Tubulin Assay: percent inhibition at 10 μM based on 30 minute data of 80% or above?
[out] NOT MET

[in] Item c1cnc(N2CCOCC2)c(-c2nnc(Nc3ccc4c(c3)OCCO4)o2)c1 [Compound 170] with Tubulin Assay: percent inhibition at 10 μM based on 30 minute data of 80% or above?
[out] NOT MET

[in] Item COc1cc(CNc2ccccc2-c2cnc(Nc3ccc4c(c3)OCCO4)o2)cc(OC)c1 [Compound 246] with Tubulin Assay: percent inhibition at 10 μM based on 30 minute data of 80% or above?
[out] NOT MET

[in] Item COc1cccc(Nc2nnc(-c3cccnc3NCc3ccncc3)[nH]2)c1 [Compound 39] with Tubulin Assay: percent inhibition at 10 μM based on 30 minute data of 80% or above?
[out] MET

[in] Item c1cnc(NCC2COCCO2)c(-c2nnc(Nc3ccc4c(c3)OCO4)[nH]2)c1 (centres unmarked) [Compound 47] with Tubulin Assay: percent inhibition at 10 μM based on 30 minute data of 80% or above?
[out] NOT MET

----------
# Test system: bovine tubulin
# Test Description: In vitro tubulin polymerization assay (turbidity at 340 nm)
# Assay type: biochemical
# Condition Label: 10 μM compound, 30 minute data point, vs 1% DMSO control
Attribute Measured: Tubulin Assay: percent inhibition at 10 μM based on 30 minute data (%)
Reply with just the number (in %).

Solved entries:
[
  {
    "Compound Structure String": "c1cnc(NCc2ccc3c(c2)CCO3)c(-c2nnc(Nc3ccc4c(c3)OCCO4)o2)c1",
    "Assay Result": 88
  },
  {
    "Compound Structure String": "COc1cccc(Nc2nnc(-c3cccnc3NCc3ccc(F)c(F)c3)[nH]2)c1",
    "Assay Result": 83
  },
  {
    "Compound Structure String": "COc1cccc(CNc2nnc(-c3ccccc3NCc3ccncc3)[nH]2)c1",
    "Assay Result": 49
  }
]

[in] Recorded Tubulin Assay: percent inhibition at 10 μM based on 30 minute data of Cc1cc(C)cc(CS(=O)(=O)Nc2ccccc2-c2nnc(Nc3ccc4c(c3)OCO4)o2)c1 , please.
[out] 20

----------
// reported Tubulin Assay: percent inhibition at 10 μM based on 30 minute data per item
# System: bovine tubulin
# Test Description: In vitro tubulin polymerization assay (turbidity at 340 nm)
# Type: biochemical
# Condition Label: 10 μM compound, 30 minute data point, vs 1% DMSO control
Reply with just the number (in %).

Solved entries:
[
  {
    "Molecule": "c1ccc(-c2nnc(Nc3ccc4c(c3)OCCO4)o2)c(NCc2ccncc2)c1",
    "Assay Result": 100
  },
  {
    "Molecule": "COc1ccc(CNc2nnc(-c3ccccc3NCc3ccncc3)[nH]2)cc1",
    "Assay Result": 24
  },
  {
    "Molecule": "O=C1CCCN1CCCNc1ncccc1-c1nnc(Nc2ccc3c(c2)OCCO3)[nH]1",
    "Assay Result": 21
  },
  {
    "Molecule": "NS(=O)(=O)c1cccc(Nc2ncccc2-c2nnc(Nc3ccc4c(c3)OCCO4)o2)c1",
    "Assay Result": 28
  },
  {
    "Molecule": "CN(C)c1ccc(-c2nnc(Nc3ccc4c(c3)OCCO4)o2)c(NCc2cncnc2)c1",
    "Assay Result": 30
  },
  {
    "Molecule": "c1cnc(NCc2ccncc2)c(-c2nnc(Nc3ccc4c(c3)OCCO4)o2)c1",
    "Assay Result": 94
  }
]

[in] Recorded Tubulin Assay: percent inhibition at 10 μM based on 30 minute data of CS(=O)(=O)c1ccc(-c2nnc(-c3cccnc3NCC3CCCO3)[nH]2)cc1 (centres unmarked) , please.
[out] 79

[in] Recorded Tubulin Assay: percent inhibition at 10 μM based on 30 minute data of COc1ccc(OC)c(Nc2nnc(-c3cccnc3Nc3ccc4cn[nH]c4c3)[nH]2)c1 , please.
[out] 44

----------
# Test system: bovine tubulin
# Test Description: In vitro tubulin polymerization assay (turbidity at 340 nm)
# Format: biochemical
# Condition Label: 10 μM compound, 30 minute data point, vs 1% DMSO control
The label depends only on Tubulin Assay: percent inhibition at 10 μM based on 30 minute data: condition met if it is at least 60%, condition not met if it is smaller.

Before answering, review these 2 worked examples.
[
  {
    "Compound": "c1cnc(NCC2COCCO2)c(-c2nnc(Nc3ccc4c(c3)OCCO4)[nH]2)c1 (stereo not drawn)",
    "Answer Label": "condition not met"
  },
  {
    "Compound": "COc1cc(Nc2ncccc2-c2nnc(Nc3ccc4c(c3)OCO4)[nH]2)cc(OC)c1",
    "Answer Label": "condition met"
  }
]

[in] Item CS(=O)(=O)c1ccc(-c2nnc(-c3cccnc3NCc3ccc(F)cc3)o2)cc1 with Tubulin Assay: percent inhibition at 10 μM based on 30 minute data of 60% or above?
[out] condition not met

[in] Item COc1cccc(-c2nnc(-c3cccnc3NCc3ccncc3)[nH]2)c1 with Tubulin Assay: percent inhibition at 10 μM based on 30 minute data of 60% or above?
[out] condition not met

[in] Item Nc1ccccc1-c1nnc(Nc2ccc3c(c2)OCCO3)[nH]1 [Compound 127b] with Tubulin Assay: percent inhibition at 10 μM based on 30 minute data of 60% or above?
[out] condition not met

[in] Item COc1cc(Nc2ncccc2-c2nnc(Nc3cc(Cl)cc(Cl)c3)[nH]2)cc(OC)c1 with Tubulin Assay: percent inhibition at 10 μM based on 30 minute data of 60% or above?
[out] condition not met

----------
# Test system: A431, human epidermoid carcinoma cells
# Test Description: Cell cycle analysis (FACS), mitotic arrest in G2/M
# Assay type: cell-based
# Condition Label: Homo sapiens, A-431, 24 h, read-out: FACS Assay: concentration required to achieve inhibition in FACS assay
// reported minimal effective concentration per item
Reply with just the number (in µM).

[
  {
    "Molecule": "COc1cccc(S(=O)(=O)Nc2ccccc2-c2nnc(Nc3ccc4c(c3)OCO4)o2)c1",
    "Assay Result": 1
  },
  {
    "Molecule": "c1cnc(NCC2COCCO2)c(-c2nnc(Nc3ccc4c(c3)OCCO4)o2)c1 (centres unmarked)",
    "Assay Result": 0.1
  },
  {
    "Molecule": "COc1ccc(OC)c(Nc2nnc(-c3cccnc3NCc3ccc4c(c3)OCO4)[nH]2)c1",
    "Assay Result": 100
  }
]

Now for another entry.
[in] Recorded minimal effective concentration of c1cnc(NCC2COCCO2)c(-c2nnc(Nc3ccc4c(c3)OCO4)o2)c1 (centres unmarked) , please.
[out] 0.1

----------
// reported Tubulin Assay: percent inhibition at 10 μM based on 30 minute data per item
# Test system: bovine tubulin
# Test Description: In vitro tubulin polymerization assay (turbidity at 340 nm)
# Assay type: biochemical
# Condition Label: 10 μM compound, 30 minute data point, vs 1% DMSO control
Reply with just the number (in %).

Solved entries:
[
  {
    "Compound Structure String": "c1coc(CNc2ncccc2-c2nnc(Nc3ccc4c(c3)OCO4)[nH]2)c1",
    "Measurement Target": "bovine tubulin",
    "Assay Result": 71
  },
  {
    "Compound Structure String": "COc1cccc(Nc2ncc(-c3ccccc3NCc3ccc(F)c(F)c3)o2)c1",
    "Measurement Target": "bovine tubulin",
    "Assay Result": 27
  },
  {
    "Compound Structure String": "COc1cccc(-c2nnc(-c3ccccc3NCc3ccc4[nH]ncc4c3)[nH]2)c1",
    "Measurement Target": "bovine tubulin",
    "Assay Result": 32
  }
]

Now for another entry.
[in] Recorded Tubulin Assay: percent inhibition at 10 μM based on 30 minute data of Brc1cnn(-c2ncccc2-c2nnc(Nc3ccc4c(c3)OCCO4)o2)c1 , please.
[out] 73

----------
# Tested on: bovine tubulin
# Test Description: In vitro tubulin polymerization assay (turbidity at 340 nm)
# Type: biochemical
# Condition Label: 10 μM compound, 30 minute data point, vs 1% DMSO control
Attribute Measured: Tubulin Assay: percent inhibition at 10 μM based on 30 minute data (%)
Reply with just the number (in %).

Solved entries:
[
  {
    "Compound": "c1cnc(OCc2ccc3c(c2)OCO3)c(-c2nnc(Nc3ccc4c(c3)OCO4)o2)c1",
    "Assay Result": 44
  },
  {
    "Compound": "COc1ccc(Nc2nnc(-c3cccnc3NCc3ccc4c(c3)OCO4)[nH]2)cc1",
    "Assay Result": 38
  },
  {
    "Compound": "O=S(=O)(Nc1ccccc1-c1nnc(Nc2ccc3c(c2)OCO3)o1)c1cccc(OC(F)(F)F)c1",
    "Assay Result": 49
  },
  {
    "Compound": "COc1cc(Nc2ncccc2-c2nnc(Nc3ccc(C#N)cc3)[nH]2)cc(OC)c1",
    "Assay Result": 32
  },
  {
    "Compound": "COCCCOc1ccccc1-c1cnc(Nc2cccc(OC)c2)o1",
    "Assay Result": 47
  },
  {
    "Compound": "CS(=O)(=O)c1ccc(-c2nnc(-c3cccnc3NCc3cccnc3)[nH]2)cc1",
    "Assay Result": 85
  },
  {
    "Compound": "CN(C)c1ccc(-c2nnc(Nc3ccc4c(c3)OCCO4)o2)c(NCc2ccc3c(c2)OCO3)c1",
    "Assay Result": 26
  },
  {
    "Compound": "FC(F)(F)c1ccc(-c2nnc(-c3ccccc3NCc3ccc4c(c3)OCCO4)[nH]2)cc1",
    "Assay Result": 21
  },
  {
    "Compound": "Fc1ccc(CNc2ncccc2-c2nnc(Nc3ccc4c(c3)OCO4)o2)cc1F",
    "Assay Result": 91
  },
  {
    "Compound": "COc1cccc(Nc2nnc(-c3cccnc3NCc3cccnc3)[nH]2)c1",
    "Assay Result": 77
  }
]

[in] Please state recorded Tubulin Assay: percent inhibition at 10 μM based on 30 minute data (tested on bovine tubulin) of COc1cc(Nc2ncccc2-c2nnc(Nc3cccc([N+](=O)[O-])c3)[nH]2)cc(OC)c1 [Compound 60a]
[out] 95

[in] Please state recorded Tubulin Assay: percent inhibition at 10 μM based on 30 minute data (tested on bovine tubulin) of COc1ccc(Nc2nnc(-c3ccccc3NCc3ccncc3)[nH]2)cc1
[out] 20

[in] Please state recorded Tubulin Assay: percent inhibition at 10 μM based on 30 minute data (tested on bovine tubulin) of CN(C)c1ccc(Nc2nnc(-c3cccnc3NCc3ccc4c(c3)OCO4)[nH]2)cc1
[out] 20

[in] Please state recorded Tubulin Assay: percent inhibition at 10 μM based on 30 minute data (tested on bovine tubulin) of c1cnc(NCC2CCCO2)c(-c2nnc(Nc3ccc4c(c3)OCCO4)o2)c1 (centres unmarked)
[out] 90

[in] Please state recorded Tubulin Assay: percent inhibition at 10 μM based on 30 minute data (tested on bovine tubulin) of COc1cc(CNc2ccccc2-c2nnc(-c3cccc(OC(F)(F)F)c3)[nH]2)cc(OC)c1
[out] 46

[in] Please state recorded Tubulin Assay: percent inhibition at 10 μM based on 30 minute data (tested on bovine tubulin) of CN(C)c1ccc(-c2nnc(Nc3ccc4c(c3)OCCO4)o2)c(NCc2ccncc2)c1
[out] 28

[in] Please state recorded Tubulin Assay: percent inhibition at 10 μM based on 30 minute data (tested on bovine tubulin) of COc1ccc(Nc2nnc(-c3cccnc3Nc3ccc4cn[nH]c4c3)[nH]2)cc1
[out] 20
